# measured.on: T1, hD53 bait (GAL4 DNA-binding domain fusion, pAS2-1hD53) (human, UniProt P04386 1-147 (Saccharomyces cerevisiae entry))
# T1 construct: Fusion expressed in yeast; also called full-length hD53 bait
# assay.protocol: yeast two-hybrid screening of a human breast carcinoma cDNA library in Y190 (His+ lacZ+)

[
  {
    "binder": "hD53 library interactor, pAD-GAL4 clone beginning at nt 204 of the hD53 cDNA (Leu9) (other, range 761-881; The clone lacks hD53 residues 1-8 (starts at Leu9); Found with the hD53 bait in Y190 and with the hD52 bait in Hf7c; also called nt 204 (Leu^9)) PSALFGGANFNQSGNIADSSLSFTFTNSSNGPNLITTQTNSQALSQPIASSNVHDNFMNNEITASKIDDGNNSKPLSPGWTDQTAYNAFGITTGMFNTTTMDDVYNYLFDDEDTPPNPKKELETEPLQGTDEDAVASADFSSMLSEEEKEELKAELVQLEDEITTLRQVLSAKERHLVEIKQKLGMNLMNELKQNFSKSWHDMQTTTAYKKTHETLSHAGQKATAAFSNVGTAISKKFGDMSYSIRHSISMPAMRNSPTFKSFEERVETTVTSLKTKVGGTNPNGGSFEEVLSSTAHASAQSLAGGSRRTKEEELQC",
    "binding result": "binds"
  },
  {
    "binder": "hD53 library interactor, pAD-GAL4 clone beginning at nt 81 of the hD53 cDNA (<Met1) (other, range 761-881; also called nt 81 (<Met^1)) PSALFGGANFNQSGNIADSSLSFTFTNSSNGPNLITTQTNSQALSQPIASSNVHDNFMNNEITASKIDDGNNSKPLSPGWTDQTAYNAFGITTGMFNTTTMDDVYNYLFDDEDTPPNPKKEMEAQAQGLLETEPLQGTDEDAVASADFSSMLSEEEKEELKAELVQLEDEITTLRQVLSAKERHLVEIKQKLGMNLMNELKQNFSKSWHDMQTTTAYKKTHETLSHAGQKATAAFSNVGTAISKKFGDMSYSIRHSISMPAMRNSPTFKSFEERVETTVTSLKTKVGGTNPNGGSFEEVLSSTAHASAQSLAGGSRRTKEEELQC",
    "binding result": "binds"
  }
]
